Test: Log P by HPLC on reversed phase columns (EEC directive 79/831 Annex V.A8)
Type: physicochemical
Details: pH 2.3; read-out: log P (pH 2.3)
Procedure: Measurement of Log P values was performed according to EEC directive 79/831 Annex V.A8 by HPLC (High Performance Liquid Chromatography) on reversed phase columns with the following methods: [^a] Log P value is determined by measurement of LC-UV, in an acidic range, with 0.1% formic acid in water and acetonitrile as eluent (linear gradient from 10% acetonitrile to 95% acetonitrile). [^b] […]
readout: chromatographic logP
Number only, no unit.

What measured chromatographic logP goes with C#CCOc1cc(F)cc(F)c1N=C=S ?
3.72

---

experiment: Log P by HPLC on reversed phase columns (EEC directive 79/831 Annex V.A8); type: physicochemical
Below is a list of entries, each paired with its recorded LogP [a] value.

Use these answered entries as a reference point.
| smiles entry | LogP [a] |
| --- | --- |
| C#CCOc1cc(F)cc(F)c1Nc1c(-c2c(F)cc(Cl)cc2F)c(C)nn1C | 3.49^[a] |
| C#CCOc1cccc(Cl)c1N=C=S | 3.86^[a] |

Look at this molecule and give its reported LogP [a]. C#CCOc1ccc(F)cc1Nc1c(-c2ccc(F)cc2Cl)c(C)nn1C
3.58^[a]

Find the recorded LogP [a] belonging to C#CCOc1cc(F)c(Nc2c(-c3ccc(Cl)nc3)c(C)nn2C)c(F)c1 and report it.
2.56^[a];

For the molecule shown here, C#CCOc1ccc(N=C=S)cc1F , give the reported LogP [a].
3.47^[a]

Form field: reported LogP [a] of C#CCOc1cc(F)c(Nc2c(-c3ccc(F)cc3F)c(C)nn2C)c(F)c1
2.90^[a]

Give the measured LogP [a] of C#CCOc1cc(F)c(Nc2c(-c3ccc(F)cc3Cl)c(C)nn2C)c(F)c1 .
3.09^[a];

Look up LogP [a] for this molecule: C#CCOc1ccc(-c2c(C)nn(C)c2Nc2c(F)cc(OCC=C)cc2F)c(F)c1
3.13^[a]

---

test: Log P by HPLC on reversed phase columns (EEC directive 79/831 Annex V.A8); type: physicochemical
readout: LogP [b]

Study these solved cases before continuing.
| smiles entry | readout | result |
| --- | --- | --- |
| C#CCOc1ccc(Nc2c(-c3ccc(F)cc3Cl)c(C)nn2C)c(Cl)c1 | LogP [b] | 3.59^[b] |
| C#CCOc1ccc(Nc2c(-c3ccc(F)cc3Cl)c(C)nn2C)cc1 | LogP [b] | 3.06^[b] |
| C#CCOc1ccc(Nc2c(-c3ccc(F)cc3Cl)c(C)nn2C)cc1F | LogP [b] | 3.14^[b]; |
| C#CCOc1cc(F)c(Nc2c(-c3ccc(Cl)cc3Cl)c(C)nn2C)cc1F | LogP [b] | 3.62^[b]; |
| C=CCOc1ccc(Nc2c(-c3ccc(F)cc3Cl)c(C)nn2C)c(Cl)c1 | LogP [b] | 4.20^[b] |

Item C=CCOc1ccc(Nc2c(-c3ccc(F)cc3Cl)c(C)nn2C)cc1F has what recorded LogP [b]?
3.56^[b];

Which LogP [b] value is on record for C=CCOc1ccc(N=C=S)c(Cl)c1 ?
4.72^[a]; 4.72^[b]

Sample C#CCOc1ccc(Nc2c(-c3ccc(F)cc3Cl)c(C)nn2C)c(F)c1 — what was its LogP [b]?
3.22^[b]
